Structures can show the parent of a compound that is named as a salt.
Listed below: melting point values for each entry.

Solved entries:
>>> value_reported("Nc1nc(-c2cc(NC(=O)Cc3cccc4ccccc34)ccc2OCc2ccccc2)cs1")
"246 to 247 °C"
>>> value_reported("Nc1nc(-c2cc(NC(=O)c3cccc4ccccc34)ccc2OCc2ccccc2)cs1")
"198 to 200 °C"
>>> value_reported("Nc1nc(-c2cc(NC(=O)Cc3ccccc3)ccc2OCc2ccccc2)cs1")
"190 to 193 °C"
>>> value_reported("Nc1nc(-c2cc(NC(=O)c3cccc4ccccc34)ccc2OCc2ccccc2)co1")
"195 to 197 °C"
>>> value_reported("Br.NC1=NN=C(c2cc(NC(=O)c3ccc(Cl)cc3)ccc2OCc2ccccc2)CS1")
"217 to 218 °C"
>>> value_reported("Br.NC1=NN=C(c2cc(NC(=O)c3ccccc3)ccc2OCc2ccccc2)CS1")
"246 to 247 °C"
>>> value_reported("NC1=NN=C(c2cc(NC(=O)c3ccc(C(F)(F)F)cc3)ccc2OCc2ccccc2)CS1 (as salt: hydrobromid)")
"222 to 225 °C"
>>> value_reported("Nc1nc(-c2cc(NC(=O)c3cccnc3)ccc2OCc2ccccc2)cs1")
"212 to 213 °C"

Next, consider the following compound.
# input I'd like to know its melting point. The compound in question is Nc1nc(-c2cc(NC(=O)CCc3ccccc3)ccc2OCc2ccccc2)cs1
# output 192 to 193 °C

* * *

Target: BACE-1 (Homo sapiens, UniProt P56817)
Construct: host or cells: insect cells
Sequence (P56817 46-501): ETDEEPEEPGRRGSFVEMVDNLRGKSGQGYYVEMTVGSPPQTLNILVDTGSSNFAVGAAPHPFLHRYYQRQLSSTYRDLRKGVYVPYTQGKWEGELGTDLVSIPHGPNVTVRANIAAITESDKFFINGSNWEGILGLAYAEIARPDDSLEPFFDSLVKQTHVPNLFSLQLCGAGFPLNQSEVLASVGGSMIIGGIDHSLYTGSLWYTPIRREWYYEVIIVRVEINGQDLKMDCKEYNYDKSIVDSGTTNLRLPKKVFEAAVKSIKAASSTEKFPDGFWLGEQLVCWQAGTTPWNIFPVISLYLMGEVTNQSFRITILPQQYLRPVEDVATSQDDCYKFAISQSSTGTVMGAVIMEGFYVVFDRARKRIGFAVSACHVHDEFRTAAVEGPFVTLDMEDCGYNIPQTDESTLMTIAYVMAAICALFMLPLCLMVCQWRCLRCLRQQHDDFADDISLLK
Assay: BACE-1 inhibition, fluorescence resonance energy transfer (FRET) assay
Assay type: biochemical
Conditions: BACE-1 FRET assay, 20 μg/mL
Procedure: The obtained target compounds were tested for their BACE-1 inhibitory activities using a fluorescence resonance energy transfer (FRET) assay, with OM99-2, a potent peptidomimetic inhibitor, as the positive control. All synthesized compounds were tested for their BACE 1 inhibitor activities using a fluorescence resonance energy transfer (FRET) assay, which used purified insect-expressed BACE-1 and a specific substrate. […]
Listed below: inhibition at 20 µg/mL values for each entry.
Field: numeric (%). Do not append units.

Solved entries:
>>> value_reported("Nc1nc(-c2cc(NC(=O)c3ccc(C(F)(F)F)cc3)ccc2OCc2ccccc2)cs1")
33
>>> value_reported("Nc1nc(-c2cc(NC(=O)c3ccccc3)ccc2OCc2ccccc2)co1")
38.8
>>> value_reported("Br.NC1=NN=C(c2cc(NC(=O)c3cccc4ccccc34)ccc2OCc2ccccc2)CS1")
60

Next, consider the following compound.
# input I'd like to know its inhibition at 20 µg/mL. The compound in question is Nc1nc(-c2cc(NC(=O)c3cccnc3)ccc2OCc2ccccc2)cs1
# output 36.8

* * *

Listed below: melting point values for each entry.

Solved entries:
>>> value_reported("Br.NC1=NN=C(c2cc(NC(=O)c3cccc4ccccc34)ccc2OCc2ccccc2)CS1")
"219 to 221 °C"
>>> value_reported("Br.COc1ccc(C(=O)Nc2ccc(OCc3ccccc3)c(C3=NN=C(N)SC3)c2)cc1")
"181 to 182 °C"

Next, consider the following compound.
# input I'd like to know its melting point. The compound in question is Nc1nc(-c2cc(NC(=O)c3ccc(C(F)(F)F)cc3)ccc2OCc2ccccc2)co1
# output 225 to 227 °C
